- target entity: recombinant human TFPI (tissue factor pathway inhibitor) (human, UniProt P10646 29-304)
- measurement notes: cell-based or functional assay
Here, each record is paired with measured FXa assay % of FXa alone, 2.5 nM Ab, 10 nM TFPI data.

clone 1024 (antibody, V domains shown) VH: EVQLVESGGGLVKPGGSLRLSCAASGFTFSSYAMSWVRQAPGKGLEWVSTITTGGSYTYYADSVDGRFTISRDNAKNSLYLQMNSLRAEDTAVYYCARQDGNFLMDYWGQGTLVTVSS VL: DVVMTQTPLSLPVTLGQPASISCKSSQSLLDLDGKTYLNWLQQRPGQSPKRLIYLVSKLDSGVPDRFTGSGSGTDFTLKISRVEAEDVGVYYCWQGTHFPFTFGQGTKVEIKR : 4.6%

Read the next record carefully.
For the binder shown here, clone 1123 (antibody, V domains shown) VH: EVQLVESGGGLVKPGGSLRLSCAASGFTFSSYAMNWVRQAPGKGLEWVSTITTGGSHTYYADSVEGRFTISRDNAKNSLYLQMNSLRAEDTAVYYCARQDGHFLMDYWGQGTLVTVSS VL: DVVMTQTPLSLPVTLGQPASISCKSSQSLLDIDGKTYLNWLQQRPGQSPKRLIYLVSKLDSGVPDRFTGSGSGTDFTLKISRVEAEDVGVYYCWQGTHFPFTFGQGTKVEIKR , give the reported FXa assay % of FXa alone, 2.5 nM Ab, 10 nM TFPI. 6.5%
